- TARGET_ENTITY: PIK3CG (human)
- PROTOCOL_DESCRIPTION: Enzyme Assay
pIC50: −log10 of the molar value.
MEASUREMENT_NAME: pIC50

Consider the reported pIC50 for these molecules:
mol=Nc1nc(N2C[C@@H](O)C[C@H]2c2nc3cccc(C(F)(F)F)c3c(=O)n2-c2ccccc2)c2nc[nH]c2n1 quantitative_readout=7.57
mol=Cc1nc(N)nc(N2CCC[C@H]2c2nc3ccc(F)c(C(F)(F)F)c3c(=O)n2-c2ccccc2)c1C#N quantitative_readout=7.52

(I) Cc1ccccc1-n1c([C@@H]2CCON2c2ncnc3[nH]cnc23)nc2cccc(Cl)c2c1=O
(II) Cn1cnc2c(N3CCC[C@H]3c3nc4cccc(Cl)c4c(=O)n3C3CC3)nc(N)nc21
(III) N#Cc1c(N)ncnc1N1C[C@@H](O)C[C@H]1c1nc2cccc(C(F)(F)F)c2c(=O)n1-c1cccc(F)c1
(IV) CN(C)n1c([C@@H]2CCCN2c2ncnc(N)c2C#N)nc2cccc(Cl)c2c1=O
(V) Cc1nc(N)nc(N2C[C@@H](O)C[C@H]2c2nc3ccc(F)c(C4CC4)c3c(=O)n2-c2ccccc2)c1C#N
Arrange by pIC50, high to low. Lab note: final answer is the ordered label list.
V, IV, II, III, I
(V: 7.96, IV: 6.72, II: 6.35, III: 6.14, I: 5.92)
